- TARGET OF ASSAY: Cytochrome P450 2C19 (Homo sapiens)
- MEASUREMENT NOTES: qHTS Assay for Inhibitors and Substrates of Cytochrome P450 2C19 (AID 899); also: nearly all actives have a fitted effect of over 60% in size
- CONDITION INFO: recombinant CYP2C19, luciferin-H EGE luminescence; series mostly up to 11.4 µM
Results filed as inconclusive are left out. The source made the active and inactive calls. Calls follow the shape of the dose curve; as a rule, active = well fitted inhibition curve with a large enough effect; inconclusive = small, poorly fitted or top-dose-only effect; inactive = no such curve, though single readings can be large or run the other way.
API: response.call in y = active, n = inactive

Consider the following illustrative entries.
INSERT INTO assay_data (compound, target_of_assay, category_label) VALUES
  ('COc1ccc(/C=C/C2=CC3(C)CC2(C)C(c2ccc(OC)cc2)CC3=O)cc1 (centres undefined)', 'Cytochrome P450 2C19 (Homo sapiens)', 'n'),
  ('CCC(=O)CC(NC(=O)OC)c1ccccc1 (centres undefined)', 'Cytochrome P450 2C19 (Homo sapiens)', 'n'),
  ('CO[C@@H]1COC(=O)[C@H](C)NC(=O)C/C=C\[C@@H](C)[C@@H](NS(=O)(=O)c2ccc(C)cc2)COC(=O)C/C=C\[C@@H]1C', 'Cytochrome P450 2C19 (Homo sapiens)', 'n'),
  ('C=CCOC(=O)C(C(C)=O)C(NC(=O)OC)c1ccccc1 (centres undefined)', 'Cytochrome P450 2C19 (Homo sapiens)', 'y'),
  ('CCCCCCC/C=C/C1=CC2(C)CC1(C)C(CCCCCCC)CC2=O (centres undefined)', 'Cytochrome P450 2C19 (Homo sapiens)', 'n'),
  ('C/C(CCN1CCc2nc(-c3ccccc3)c(-c3ccccc3)cc2C1)=N\OC[C@@H](C)[C@H](OCc1ccccc1)C(C)C', 'Cytochrome P450 2C19 (Homo sapiens)', 'y'),
  ('C=C(C)C(O)/C=C/C=C/c1ccccc1 (centres undefined)', 'Cytochrome P450 2C19 (Homo sapiens)', 'n'),
  ('CCCCC1CN2C(CCC(C)C2c2ccc(Br)cc2)C(=O)O1 (centres undefined)', 'Cytochrome P450 2C19 (Homo sapiens)', 'y'),
  ('CC/C=C\CC[C@H](OC(=O)c1ccc(Br)cc1)C1=CCCCC1=O', 'Cytochrome P450 2C19 (Homo sapiens)', 'y'),
  ('CCOC(=O)OCC1OC(c2ccc(C(C)=O)cc2)C=CC1Oc1ccc(-c2ccccc2)cc1 (centres undefined)', 'Cytochrome P450 2C19 (Homo sapiens)', 'n');

How was CCCCCCC1=Cc2cc(OC)c(OC)cc2C(C(C(C)=O)C(=O)OC)O1 (centres undefined) classified in this test? y

How was COc1cccc([C@@H]2Oc3ccc(OC)cc3/C(=N/OC[C@@H](O)COCc3ccco3)[C@@H]2O)c1 classified in this test? y

How was CC(C)CCN1CCc2nc(COc3ccccc3)c3c(c2C1)COC(C)C3 (centres undefined) classified in this test? n

How was COc1ccc(/C=C/NC(=O)c2ccc(OC)cc2)cc1 classified in this test? n

How was COC(c1ccccc1Br)C(C)/C=C/CCO (centres undefined) classified in this test? y

How was O=C1CCCC=C1[C@H](CCc1ccccc1)OC(=O)c1ccc(Br)cc1 classified in this test? y

====

- MEASUREMENT NOTES: qHTS assay for small molecule agonists of retinoid X receptor alpha signaling (AID 588544)
- CONDITION INFO: HEK293T RXRa-UAS-bla, beta-lactamase reporter, 18 h; 530 nm emission
Records with an inconclusive call do not appear.
Each entry below lists one item and its recorded max response value.
Please give a number only; it is taken to be in %.

Sample answers from the record:
INSERT INTO results (compound, endpoint, reading_unit, assay_result) VALUES
  ('C/C=C/C/C=C\CCCCCCCCOC(C)=O', 'max response', '%', -14.4),
  ('CCCCCCCCCC(=O)OC', 'max response', '%', -16.2),
  ('NN(c1ccccc1)c1ccccc1', 'max response', '%', -8.85),
  ('CCCCCCCCCCCO', 'max response', '%', -10.8),
  ('CCCCCCC(O)CCCCCCCCCCC(=O)OC (stereo unspecified)', 'max response', '%', -11.4);

Recorded max response of C[Si](Cl)(Cl)c1ccccc1 , please. -17.5

Recorded max response of CC(C)C(=O)OC(=O)C(C)C , please. -11.3

Recorded max response of CCSC(=O)N(CC(C)C)CC(C)C , please. -8.61

Recorded max response of CCCCCCCCCCCCCCN , please. -19.1

Recorded max response of CCOC(=O)CC(O)(CC(=O)OCC)C(=O)OCC , please. -10.3

Recorded max response of CCCCC/C=C\C/C=C\CCCCCCCC(=O)OC , please. -7.14

====

- TARGET OF ASSAY: Glucocorticoid receptor (Homo sapiens)
- MEASUREMENT NOTES: qHTS assay for small molecule agonists of glucocorticoid receptor signaling (AID 588532);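 also: 100% = dexamethasone at 0.1 µM and 0% = DMSO only wells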
- CONDITION INFO: HeLa MMTV-bla, beta-lactamase ratio, agonist, 18 h; stronger effect = higher value; percent of dexamethasone control, DMSO zero
Inconclusive results are not listed.
Each entry below lists one item and its recorded activation value.
Please give a number only; it is taken to be in %.

INSERT INTO assay_data (molecule, reading_unit, assay_result) VALUES
  ('CCOC(=O)C1=NN(c2ccc(Cl)cc2Cl)C(C)(C(=O)OCC)C1 (stereo unspecified)', '%', -2.41);

Recorded activation of C=CCCCCCCCCC=O , please. 4.91

Recorded activation of CS(C)=O , please. -5.87

Recorded activation of Cc1nn(C)c(Oc2ccccc2)c1/C=N/OCc1ccc(C(=O)OC(C)(C)C)cc1 , please. -3.9

Recorded activation of O=c1[nH]c(=O)c2[nH]cnc2[nH]1 , please. 3.26

====

- MEASUREMENT NOTES: qHTS assay for small molecule agonists of the antioxidant response element (ARE) signaling pathway (AID 651741); as to activation: % of control where 0% means no effect
- CONDITION INFO: HepG2 ARE-bla reporter, beta-lactamase FRET ratio, 16 h; series mostly up to 96 µM
Inconclusive results are not listed. The source made the active and inactive calls. The call rests on the fitted dose curve; in most records, active means well fitted activation curve with a large enough effect in the signal ratio; inconclusive means small, poorly fitted or top-dose-only effect, or effect the other way, or a change in a side signal; inactive means flat fitted curve, though single readings scatter; the % refers to the signal ratio.
API: response.call in active, inactive

INSERT INTO results (molecule, category_label) VALUES
  ('O=C(O)c1cc(O)c2ccccc2c1O', 'active'),
  ('CCCCCCCCCCCC(=O)OC', 'active'),
  ('CCCCCCCCCCCCCCCCCC#N', 'inactive');

How was O=C(Cl)c1cccc(C(=O)Cl)c1 classified in this test? inactive

How was CC(=O)/C=C/C1C(C)=CCCC1(C)C (centres undefined) classified in this test? inactive

How was C[Si]1(C)O[Si](C)(C)O[Si](C)(C)O1 classified in this test? inactive

====

- TARGET OF ASSAY: Cytochrome P450 3A4 (Homo sapiens)
- MEASUREMENT NOTES: qHTS Assay for Inhibitors and Substrates of Cytochrome P450 3A4 (AID 884); also: nearly all actives have a fitted effect of over 50% in size
- CONDITION INFO: recombinant CYP3A4, Luciferin-PPXE luminescence; series mostly up to 57.1 µM
Records with an inconclusive call do not appear. Activity calls are given as the source filed them. The call rests on the fitted dose curve; in most records, active means well fitted inhibition curve with a large enough effect; inconclusive means small, poorly fitted or top-dose-only effect; inactive means no such curve, though single readings can be large or run the other way.
API: response.call in active, inactive

Consider the following illustrative entries.
INSERT INTO assay_data (compound, category_label) VALUES
  ('C[C@H]1CC[C@H]2C(=O)N[C@H](Cc3ccccc3)C(=O)N2[C@@H]1c1ccccc1', 'active'),
  ('C=C1C(=O)OC2C[C@@]3(C)CCCC(C)C3=CC12 (stereo partly drawn)', 'active'),
  ('COc1cc(C(C)=O)cc(OC)c1O', 'inactive'),
  ('CC(C)NC(=O)[C@@H]1C[C@H]1[C@@H](NC(=O)OCc1ccccc1)c1ccccc1', 'active'),
  ('CCC1=C(OC(=O)N(CC)CC)N2C(=O)OC(=NCc3ccccc3)[C@]2(C)[C@H]2C1=CC[C@H]1C(=O)N(CC)C(=O)[C@H]12', 'active'),
  ('CCCNC(=O)OC[C@H]1O[C@@H](CCO/N=C\[C@@H](NS(=O)(=O)c2ccc(C)cc2)[C@H](C)/C=C\CC(=O)OC)C=C[C@@H]1Oc1ccc(OC)cc1', 'active'),
  ('O=C1[C@H]2[C@H]3[C@H](O)[C@H](O)C/C(=N/OC[C@@H](O)COCc4ccco4)[C@@H]3CC[C@@H]2C(=O)N1Cc1ccccc1', 'active'),
  ('CC12C=C(/C=C/c3ccc(Br)cc3)C(C)(C1)C(c1ccc(Br)cc1)CC2=O (stereo not drawn)', 'active'),
  ('CC(Cc1ccccc1)C(=O)NCC1CC1 (stereo not drawn)', 'inactive'),
  ('CC(=O)OC1CCC2(C)C3CCC4(C)C(CC5CCCCC54C(C)=O)C3CC(=O)[C@@]2(O)C1 (stereo partly drawn)', 'active');

How was CN(C)/C=N/c1cc(=O)[nH]c(=O)n1CC1CC1 classified in this test? inactive

How was Cn1c(N)c(C(=O)COC(=O)c2cc(-c3ccco3)nc3ccccc23)c(=O)n(Cc2ccccc2)c1=O classified in this test? active

How was O=C(/C=C/c1ccc(O)cc1)c1c(O)cc(O)cc1O classified in this test? active
